# target: T1, γδ T cell receptor on human γδ T cells (human)
# T1 construct: whole, on cells; Target is the γδ TCR on a mixed population of human γδ T cells; also called AG000003021 (γδ T cells)
# measurement_protocol: flow cytometry DRC binding 37 C, human γδ T cells
reported_endpoint: Max. Activity (fold over background)
Write the answer as a number in fold over background, unit excluded.

VG9B144 (antibody, human IgG1, lambda, V domains shown, IgG1, lambda; specificity column: g/d constant) VH: QVQLVQSGAEVKKPGASVKVSCKASGYTFTGYYMHWMRQAPGQGLEWMGWINPNSGATNKEQKFQGRVTMTRDTSISTAYMELSRLRSDDTAVYYCAREDDAFDVWGQGTMVTVSS VL: SSELTQDPAVSVALGQTVRITCQGDNLRNYYATWFQQKPGQAPVLVFFGKNNRPSGIPDRFSGSSSGDTASLTITGAQAEDEADYYCNSRDSSGNHVVFGGGTKLTVLG ... 2430
VG9B125 (antibody, human IgG1, kappa, V domains shown, IgG1, kappa; specificity column: g/d constant) VH: EVQLVESGGTLVQPGGSLRLSCAVSGFTFSSYDMNWVRQAPGKGLEWVSYISSSSTAKYYADSVKGRFTISRDNAKNSLYLQMNSLWDEDTAVYYCAREDIVVVTPILQHWGQGTTVTVSS VL: EIVMTQSPATLSLSPGERAILSCRASQSVSKDLAWYQQKPGQAPRLLIYDASNRATGIPARISGSGSGTDFTLTISSLEPEDFAVYYCQQRINWPLFTFGPGTKVEIKR ... 1990

Then there is this binder:
Lookup: Need Max. Activity of VG9B189 (antibody, human IgG1, lambda, V domains shown, IgG1, lambda; specificity column: Vd2) VH: EVQLVQSGGGLVKPGASLKLSCAASGFTFSNHGMSWVRQTSDKRLEWVASITRGGDTTYYPDNVKGRFTISRENAKNTLYLQMSSLKSDDTALYYCTRGPLTVGYAMDYWGQGTTVTVSS VL: QSVVTQPPSASGSPGQSVTISCTGTSSDVGGYNYVSWYQQHPGKAPKLMIYEVSKRPSGVPDRFSGSKSGNTASLTVSGLQAEDEADYYCNSYAGSNNFEVFGGGTKVTVLG , thanks.
Found: 739
